Assayed System: Rhesus PDE2A3 (Macaca mulatta, UniProt B3VTJ2)
Sequence (B3VTJ2 1-941): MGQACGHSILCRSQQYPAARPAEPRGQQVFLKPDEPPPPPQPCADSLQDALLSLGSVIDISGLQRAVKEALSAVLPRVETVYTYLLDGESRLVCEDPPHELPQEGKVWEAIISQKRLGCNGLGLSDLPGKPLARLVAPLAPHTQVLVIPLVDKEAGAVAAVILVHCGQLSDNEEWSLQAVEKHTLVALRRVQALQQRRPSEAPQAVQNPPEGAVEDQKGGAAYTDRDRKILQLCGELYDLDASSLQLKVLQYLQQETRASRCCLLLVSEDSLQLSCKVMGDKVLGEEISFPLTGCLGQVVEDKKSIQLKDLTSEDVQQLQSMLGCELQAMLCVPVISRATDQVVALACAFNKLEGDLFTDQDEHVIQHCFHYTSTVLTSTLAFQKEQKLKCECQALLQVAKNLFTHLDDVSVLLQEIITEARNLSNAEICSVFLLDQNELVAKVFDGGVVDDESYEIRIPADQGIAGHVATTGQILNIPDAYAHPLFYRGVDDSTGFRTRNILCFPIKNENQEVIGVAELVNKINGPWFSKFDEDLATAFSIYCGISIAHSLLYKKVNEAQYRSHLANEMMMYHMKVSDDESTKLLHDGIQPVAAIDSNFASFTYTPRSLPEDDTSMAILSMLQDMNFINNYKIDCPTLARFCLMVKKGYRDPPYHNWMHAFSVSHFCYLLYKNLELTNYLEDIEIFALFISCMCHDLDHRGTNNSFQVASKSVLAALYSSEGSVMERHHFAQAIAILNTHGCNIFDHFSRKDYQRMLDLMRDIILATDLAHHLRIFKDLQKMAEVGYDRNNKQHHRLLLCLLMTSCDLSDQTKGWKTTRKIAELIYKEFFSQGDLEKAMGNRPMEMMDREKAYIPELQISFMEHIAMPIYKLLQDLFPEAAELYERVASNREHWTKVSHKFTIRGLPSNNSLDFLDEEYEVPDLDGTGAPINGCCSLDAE
Method Summary: PDE2 fluorescence polarization (IMAP FP) inhibition assay, rhesus enzyme
Format: biochemical, rhesus macaque
Reported Conditions: Rhesus PDE2, Lab B; read-out: Rhesus PDE2 Ki (nM) - Lab B
Assignment: determine reported Ki for the given molecules.
Answers are plain numbers, in nM.

{"columns": ["Molecule", "Assayed System", "Ki / nM"],
 "data": [
  ["COCc1nc(C(=O)N[C@H](C)c2ccc(SC(F)(F)F)cc2)cc(=O)[nH]1", "Rhesus PDE2A3 (Macaca mulatta, UniProt B3VTJ2)", 31],
  ["COc1ccc([C@@H](C)NC(=O)c2cc(=O)[nH]c(-c3ccccc3)n2)cc1", "Rhesus PDE2A3 (Macaca mulatta, UniProt B3VTJ2)", 74],
  ["C[C@@H](NC(=O)c1cc(=O)[nH]c(C2CC2)n1)c1cc(F)c(C(F)(F)F)cc1F", "Rhesus PDE2A3 (Macaca mulatta, UniProt B3VTJ2)", 51],
  ["CC[C@@H](NC(=O)c1cc(=O)[nH]c(Cc2ccc(OC)c(F)c2)n1)c1ccc(SC(F)(F)F)cc1", "Rhesus PDE2A3 (Macaca mulatta, UniProt B3VTJ2)", 1.8],
  ["CC[C@@H](NC(=O)c1cc(=O)[nH]c(-c2ncccn2)n1)c1ccc(OC(F)(F)F)c(F)c1", "Rhesus PDE2A3 (Macaca mulatta, UniProt B3VTJ2)", 9.3],
  ["CC[C@@H](NC(=O)c1cc(=O)[nH]c(Cc2ccc(OC)c(F)c2)n1)c1ccc(C(F)(F)F)c(F)c1", "Rhesus PDE2A3 (Macaca mulatta, UniProt B3VTJ2)", 3.1],
  ["CC(NC(=O)c1cc(=O)[nH]c(-c2ccccc2)n1)c1ccc2c(c1)OCCO2 (stereo not shown)", "Rhesus PDE2A3 (Macaca mulatta, UniProt B3VTJ2)", 459],
  ["Cc1nc(C(=O)NC2(c3ccc(C(C)(C)C)cc3)CC2)cc(=O)[nH]1", "Rhesus PDE2A3 (Macaca mulatta, UniProt B3VTJ2)", 29]
]}

Provide Ki values for the following items, in order.
1. COc1ccc(Cc2nc(C(=O)N[C@@H](c3ccc(OC(F)(F)F)c(F)c3)C3CC3)cc(=O)[nH]2)cc1F
2. Cc1ccc([C@H](C)NC(=O)c2cc(=O)[nH]c(-c3ccccc3)n2)cc1
3. Cc1nc(C(=O)N[C@H](C)c2ccc(C3(C)CC3)cc2)cc(=O)[nH]1
4. CSCC(NC(=O)c1cc(=O)[nH]c(-c2ccccc2)n1)c1ccc(C(F)(F)F)cc1 (stereo not shown)
5. COc1ccc(Cc2nc(C(=O)N[C@@H](c3ccc(C(F)(F)F)c(F)c3)C(C)(C)C)cc(=O)[nH]2)cc1

**Result**
1: 2.3; 2: 3950; 3: 47; 4: 24; 5: 0.85

Provide Ki values for the following items, in order.
1. COc1ccc(C(C)(C)c2nc(C(=O)N[C@@H](c3ccc(OC(F)(F)F)cc3)C3CC3)cc(=O)[nH]2)cc1
2. O=C(N[C@@H](c1ccc(OC(F)F)cc1)C1CC1)c1cc(=O)[nH]c(C2CC2)n1
3. Cc1nc(C(=O)N[C@@H](c2ccc(OC(F)F)cc2)C(C)(C)C)cc(=O)[nH]1

**Result**
77
43
9.8
